# method-description: chemical genetic growth profiling, strain panel (AID 1159580);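 also: tested at 20 µM; growth read once vehicle control cultures reached saturation at 30 °C; 1 = growth at the plate median or of vehicle wells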
# protocol-conditions: S. cerevisiae deletion strains, growth OD, locus YOR270C, strain vph1, stronger effect = lower value
Out of some 5,500 compounds screened, about 2,000 (36%) were called active. Another 18% or so got no clear call; they are omitted. The list shows a part of the results.
Consider the cut-off 1. If the recorded normalized growth is strictly smaller, the label is 1; if not, the label is 0.

Examples with answers:
[[record]]
compound = "CCCCc1nc(Cl)c(CO)n1Cc1ccc(-c2ccccc2-c2nn[nH]n2)cc1"
qualitative_label = 1

[[record]]
compound = "CCN(CC)CCNC(=O)c1cc(Cl)c(N)cc1OC"
qualitative_label = 1

[[record]]
compound = "CC(=O)[O][Hg][c]1ccccc1"
qualitative_label = 1

[[record]]
compound = "CC1=CC2C(C(C)C)CCC(C)(O)C2CC1 (stereo not given)"
qualitative_label = 1

[[record]]
compound = "CC(=O)Oc1ccccc1C(=O)O"
qualitative_label = 0


Let's switch to this compound now.
q: Is normalized growth of CCCc1nc2c(C)cc(-c3nc4ccccc4n3C)cc2n1Cc1ccc(-c2ccccc2C(=O)O)cc1 strictly below 1?
a: 1

###

For each of the compounds below, state its normalized growth.
# method-description: chemical genetic growth profiling, strain panel (AID 1159580)
# protocol-conditions: S. cerevisiae deletion strains, growth OD, locus YML032C, strain rad52, stronger effect = lower value
The campaign covered roughly 5,500 compounds. About 2,000 (36%) were called active. Inconclusive results (about 18%) are left out. The list shows a part of the results.
Numbers only.

For every record below, what is its normalized growth?
1. Cc1cc(=O)n(-c2ccccc2)n1C
2. CCOc1ccc(C(=O)c2ccc(O)c(O)c2O)cc1
3. CCOc1ccc(NC(C)=O)cc1
4. COc1cccc(O)c1O
5. CC(=O)N[C@@H](Cc1c[nH]c2ccccc12)C(=O)O

a:
[0.993, 0.994, 0.994, 1.01, 1.02]

For every record below, what is its normalized growth?
1. COc1ccc2c(c1OC)OC[C@@H](c1ccc(OC)c(OC)c1OC)C2
2. NCC1OC(OC2C(CO)OC(OC3C(O)C(N)CC(N)C3OC3OC(CO)C(O)CC3N)C2O)C(N)C(O)C1OC1OC(CO)C(O)C(O)C1O (centres undefined)
3. CO[C@@]1(NC(=O)Cc2cccs2)C(=O)N2C(C(=O)O)=C(COC(N)=O)CS[C@@H]21
4. COc1ccc([C@H]2COc3c(ccc(O)c3OC)C2)c(OC)c1O

a:
1. 1.02
2. 0.981
3. 0.994
4. 0.993

###

For each of the compounds below, state its normalized growth.
# method-description: chemical genetic growth profiling, strain panel (AID 1159580)
# protocol-conditions: S. cerevisiae deletion strains, growth OD, locus YKL190W, strain CNB1, stronger effect = lower value
The campaign covered roughly 5,500 compounds. About 2,000 (36%) were called active. Inconclusive results (about 18%) are left out. The list shows a part of the results.
Numbers only.

For every record below, what is its normalized growth?
1. CC(=O)CC1CCCCN1 (stereo not drawn)
2. CC(=O)Oc1cccc2c1C(=O)c1c(OC(C)=O)cc(C(=O)O)cc1C2=O

a:
1. 1.02
2. 0.986

For every record below, what is its normalized growth?
1. Cc1c(NC(=O)c2cccnc2)c(=O)n(-c2ccccc2)n1C
2. O=C(c1cccc([N+](=O)[O-])c1)c1cc2cc(Br)cc(Br)c2o1
3. COC1(C)CCC2OC2(C)CCC2C1CC2(C)C (stereo not drawn)
4. COc1cc(/C=C/C=O)cc(OC)c1OC

a:
1: 0.989; 2: 0.996; 3: 1; 4: 1.01

###

# method-description: chemical genetic growth profiling, strain panel (AID 1159580)
# protocol-conditions: S. cerevisiae deletion strains, growth OD, locus YHR079C, strain IRE1 (second series), stronger effect = lower value
Hit rate of the full screen: of about 5,500 compounds, about 2,000 (36%) were called active. Roughly 18% stayed inconclusive and do not appear here. The list shows a part of the results.
readout-name: normalized growth
Answers are plain numbers.

For every record below, what is its normalized growth?
1. CN1CCN(CCC=C2c3ccccc3Sc3ccc(S(=O)(=O)N(C)C)cc32)CC1
2. CC(=O)OC1CCC2(C)C3CC(=O)C4(C)C(CC5OC6(CCC(C)CO6)[C@@H](C)C54)C3CC[C@H]2C1 (stereo not given in full)
3. Cc1onc(-c2c(Cl)cccc2Cl)c1C(=O)N[C@@H]1C(=O)N2[C@@H]1SC(C)(C)[C@@H]2C(=O)O
4. O=C(CCc1ccc(O)cc1)c1c(O)cc(O)cc1O[C@@H]1O[C@H](CO)[C@@H](O)[C@H](O)[C@H]1O
5. NCC1OC(OC2C(CO)OC(OC3C(O)C(N)CC(N)C3OC3OC(CO)C(O)CC3N)C2O)C(N)C(O)C1OC1OC(CO)C(O)C(O)C1O (stereo not given)

a:
0.933
0.987
0.989
1
0.986

###

# method-description: chemical genetic growth profiling, strain panel (AID 1159580);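 also: tested at 20 µM; growth read once vehicle control cultures reached saturation at 30 °C; 1 = growth at the plate median or of vehicle wells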
# protocol-conditions: S. cerevisiae deletion strains, growth OD, locus YNL250W, strain rad50, stronger effect = lower value
About 2,000 (36%) of roughly 5,500 compounds were called active. About 18% were inconclusive and are not listed. The list shows a part of the results.
For each of the compounds below, state its normalized growth.
One number for each entry.

For every record below, what is its normalized growth?
1. CCOc1ccc(NC(C)=O)cc1
2. CC1(C)C(=O)[C@@H]2O[C@@H]2[C@@]2(C)C1CC(=O)[C@]1(C)C2CC[C@@]2(C)[C@H](c3ccoc3)OC(=O)[C@H]3O[C@]321 (some centres not stated)
3. CC[C@H]1CN2CCc3cc(OC)c(OC)cc3C2C[C@@H]1CC1NCCc2cc(OC)c(OC)cc21 (some centres not stated)
4. O=c1oc2c(O)c(O)cc3c(=O)oc4c(O)c(O)cc1c4c23

a:
0.991
0.96
1.01
0.947

For every record below, what is its normalized growth?
1. COc1ccc(C(=O)O)c(O)c1OC
2. COc1ccc(C(=O)c2ccccc2)c(O)c1O
3. COc1ccc2c(c1)[C@]13CCCC[C@H]1[C@H](C2)N(C)CC3

a:
0.991
0.9
1.01

For every record below, what is its normalized growth?
1. COc1cc2c(cc1O)CCNC2C (configuration not stated)
2. CCCCCCCCCCCCCCCCCCOCC(O)CO (configuration not stated)
3. NCCc1c[nH]c2ccccc12
4. CC(=O)OCC1=C(C(=O)O)N2C(=O)[C@@H](NC(=O)CCCC(N)C(=O)O)C2SC1 (some centres not stated)

a:
1. 0.99
2. 1
3. 0.974
4. 1

q: What normalized growth value was documented for this compound, COc1cc(NS(=O)(=O)c2ccc(N)cc2)ncn1 ?
a: 0.979

###

# method-description: chemical genetic growth profiling, strain panel (AID 1159580);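 also: tested at 20 µM; growth read once vehicle control cultures reached saturation at 30 °C; 1 = growth at the plate median or of vehicle wells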
# protocol-conditions: S. cerevisiae deletion strains, growth OD, locus YDL101C, strain DUN1
Hit rate of the full screen: of about 5,500 compounds, about 2,000 (36%) were called active. Inconclusive results (about 18%) are left out. No stated cut-off is given here; in the data, active means normalized growth mostly below about 0.91 (no sharp cut-off); inconclusive means no clear call, values can overlap the other calls; inactive means mostly above about 0.92. Some of the results follow.
Respond using exactly one of the listed classes: T for active, F for inactive

[[record]]
compound = "Cc1cc(C)cc(N2C(=O)CC(Sc3ccccc3C(=O)O)C2=O)c1 (stereo not drawn)"
qualitative_label = "F"

[[record]]
compound = "Cc1ccc2nc(-c3ccc([N+](=O)[O-])o3)oc(=O)c2c1"
qualitative_label = "T"


q: Write down the call the test reported for this compound. Item: COC(=O)c1ccccc1CSc1nccc(C(F)(F)F)n1
a: F

###

# method-description: chemical genetic growth profiling, strain panel (AID 1159580);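 also: tested at 20 µM; growth read once vehicle control cultures reached saturation at 30 °C; 1 = growth at the plate median or of vehicle wells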
# protocol-conditions: S. cerevisiae deletion strains, growth OD, locus YAL040C, strain CLN3, stronger effect = lower value
Out of some 5,500 compounds screened, about 2,000 (36%) were called active. Not shown: some 18% with an inconclusive outcome. Some of the results follow.
readout-name: normalized growth
Numbers only.

Sample records with normalized growth:
[[record]]
molecule = "CNC(=O)[C@H]1O[C@@H](n2cnc3c(NCc4ccc(N)cc4)ncnc32)C(O)[C@H]1O (stereo partly drawn)"
readout_name = "normalized growth"
result_value = 0.991

[[record]]
molecule = "CCCCCN(CCCCC)C(=O)C(CCC(=O)O)NC(=O)c1ccc(Cl)c(Cl)c1 (stereo not drawn)"
readout_name = "normalized growth"
result_value = 1

[[record]]
molecule = "NC1CC1c1ccccc1 (stereo not drawn)"
readout_name = "normalized growth"
result_value = 0.989

[[record]]
molecule = "CC(=O)Oc1ccccc1C(=O)O"
readout_name = "normalized growth"
result_value = 0.996

[[record]]
molecule = "Nc1ncnc2c1nc(Br)n2C1OC2COP(=O)(O)O[C@@H]2C1O (stereo partly drawn)"
readout_name = "normalized growth"
result_value = 0.986

[[record]]
molecule = "CCCCCCCCCCCCCCCCOCC(COCC(F)(F)F)OP(=O)(O)OCO (stereo not drawn)"
readout_name = "normalized growth"
result_value = 1

[[record]]
molecule = "CC(C)C1C2CCC(C2)C1N (stereo not drawn)"
readout_name = "normalized growth"
result_value = 0.976


Shift focus to the following entry.
q: What normalized growth value was documented for this molecule, CC(=O)NCCc1c[nH]c2ccccc12 ?
a: 1.01
